System: Plasmodium berghei
Experiment: Luciferase/luciferin-expressing antifolate-resistant parasites were used to infect a culture of HepG2 cells that were pre-incubated with compounds. Infected hepatocytes emit light due to the luciferase reaction. Assay results are presented as the percent inhibition of light emission compared to control. […]
Type: functional
Conditions: sporozoite, HEPG2TOX_HILL_SLOPE 11.2, HEPG2TOX_R_SQUARED 0.292, PBLUC_HILL_SLOPE 7.94, PBLUC_R_SQUARED 0.51, read-out: LUCIFERASE INFECTION ASSAY - IC50
Assay Endpoint: IC50 (µM)
# number only, unit µM dropped from output

Sure, the documented IC50 for CC(NC(=O)c1cnn(-c2ccc(C(F)(F)F)cn2)c1C(F)(F)F)C1CC2CCC1C2 (stereo unspecified) is 4.02

---

Tested on: Plasmodium berghei
Assay: Luciferase/luciferin-expressing antifolate-resistant parasites were used to infect a culture of HepG2 cells that were pre-incubated with compounds. Infected hepatocytes emit light due to the luciferase reaction. Assay results are presented as the percent inhibition of light emission compared to control. […]
Format: functional
Settings: sporozoite, PBLUC_HILL_SLOPE 3.68, PBLUC_R_SQUARED 0.383, read-out: LUCIFERASE INFECTION ASSAY - IC50
Assay Endpoint: IC50 (µM)
# number only, unit µM dropped from output

Sure, the documented IC50 for CCN1CCN(c2cc(C(C)(C)C)nc3c(-c4ccccc4)cnn23)CC1 is 6.05

---

Test system: Plasmodium berghei
Test: Luciferase/luciferin-expressing antifolate-resistant parasites were used to infect a culture of HepG2 cells that were pre-incubated with compounds. Infected hepatocytes emit light due to the luciferase reaction. Assay results are presented as the percent inhibition of light emission compared to control. […]
Assay type: functional
Settings: sporozoite, HEPG2TOX_HILL_SLOPE 12.3, HEPG2TOX_R_SQUARED 0.936, PBLUC_HILL_SLOPE 378, PBLUC_R_SQUARED 0.452, read-out: LUCIFERASE INFECTION ASSAY - IC50
Assay Endpoint: pIC50
Note: pIC50 values are expressed as the negative base-10 logarithm of concentration in M.

Sure, the documented pIC50 for CN1C/C(=C\c2ccccc2Cl)C(=O)/C(=C/c2ccccc2Cl)C1 is 5.45

---

Test system: Plasmodium berghei
Assay: Luciferase/luciferin-expressing antifolate-resistant parasites were used to infect a culture of HepG2 cells that were pre-incubated with compounds. Infected hepatocytes emit light due to the luciferase reaction. Assay results are presented as the percent inhibition of light emission compared to control. […]
Type: functional
Conditions: sporozoite, FFLUC_HILL_SLOPE 1.91, FFLUC_R_SQUARED 0.0412, HEPG2TOX_HILL_SLOPE 16.8, HEPG2TOX_R_SQUARED 0.892, PBLUC_HILL_SLOPE 9.75, PBLUC_R_SQUARED 0.262, read-out: LUCIFERASE INFECTION ASSAY - IC50
Assay Endpoint: IC50 (µM)
# number only, unit µM dropped from output

Sure, the documented IC50 for O=C(Nc1cc(Cl)cc(Cl)c1)c1cc(Cl)c(-n2cccc2)c(Cl)c1 is 3.47

---

System: Plasmodium berghei
Test: Luciferase/luciferin-expressing antifolate-resistant parasites were used to infect a culture of HepG2 cells that were pre-incubated with compounds. Infected hepatocytes emit light due to the luciferase reaction. Assay results are presented as the percent inhibition of light emission compared to control. […]
Format: functional
Conditions: sporozoite, HEPG2TOX_HILL_SLOPE 1.31, HEPG2TOX_R_SQUARED 0.867, PBLUC_HILL_SLOPE 3.24, PBLUC_R_SQUARED 0.486, read-out: LUCIFERASE INFECTION ASSAY - IC50
Assay Endpoint: IC50
# number then unit; no other words

Readout IC50 for Cc1nc(NCCCCCc2n[nH]c(N)c2C#N)c2c(-c3ccccc3)csc2n1 , test system Plasmodium berghei, was 3.79 µM
